Values compiled from patent US20190092852A1.

Target: T1, human IL-33 (R&D Systems, #3625-IL-010/CF) (human) (UniProt O95760)
T1 sequence (looked up): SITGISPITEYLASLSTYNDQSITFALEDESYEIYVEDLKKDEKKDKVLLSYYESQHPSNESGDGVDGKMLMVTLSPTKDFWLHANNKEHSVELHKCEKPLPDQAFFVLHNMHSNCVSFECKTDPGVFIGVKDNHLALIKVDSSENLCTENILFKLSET
Experiment: SPR Biacore T200, 25 C
Flag rule - Kd less than 0.8 nM flags yes (1); the remaining entries get no (0).

BINDER | ASSIGNED LABEL
H4H9672P (antibody, from another filing, IgG4, V domains shown) VH: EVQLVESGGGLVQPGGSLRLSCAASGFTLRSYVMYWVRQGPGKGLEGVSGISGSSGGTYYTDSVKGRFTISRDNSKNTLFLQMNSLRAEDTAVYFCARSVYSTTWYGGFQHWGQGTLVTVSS VL: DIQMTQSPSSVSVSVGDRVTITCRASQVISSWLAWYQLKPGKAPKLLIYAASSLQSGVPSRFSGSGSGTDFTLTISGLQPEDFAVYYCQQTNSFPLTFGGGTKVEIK | no (0)
H4H9665P (antibody, from another filing, IgG4, V domains shown) VH: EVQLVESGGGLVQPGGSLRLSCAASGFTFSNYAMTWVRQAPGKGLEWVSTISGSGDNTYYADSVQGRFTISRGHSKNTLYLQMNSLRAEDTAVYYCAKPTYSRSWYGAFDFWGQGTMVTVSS VL: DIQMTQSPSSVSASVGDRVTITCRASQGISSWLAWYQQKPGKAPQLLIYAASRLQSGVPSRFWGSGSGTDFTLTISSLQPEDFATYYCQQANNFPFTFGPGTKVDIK | no (0)
H4H9676P (antibody, from another filing, IgG4, V domains shown) VH: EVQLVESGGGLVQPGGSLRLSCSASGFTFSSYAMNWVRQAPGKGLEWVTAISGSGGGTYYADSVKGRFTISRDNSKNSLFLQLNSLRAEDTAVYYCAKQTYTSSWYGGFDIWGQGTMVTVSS VL: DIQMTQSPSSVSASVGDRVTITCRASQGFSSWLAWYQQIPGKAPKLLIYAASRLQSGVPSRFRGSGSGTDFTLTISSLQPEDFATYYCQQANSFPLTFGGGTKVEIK | yes (1)
H4H9667P (antibody, from another filing, IgG4, V domains shown) VH: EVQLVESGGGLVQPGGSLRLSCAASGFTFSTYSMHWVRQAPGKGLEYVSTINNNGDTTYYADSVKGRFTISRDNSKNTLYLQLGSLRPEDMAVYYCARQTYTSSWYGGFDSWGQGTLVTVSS VL: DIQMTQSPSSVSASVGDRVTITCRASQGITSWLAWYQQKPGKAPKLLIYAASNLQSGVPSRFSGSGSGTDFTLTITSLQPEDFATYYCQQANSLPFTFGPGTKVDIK | yes (1)
H4H9663P (antibody, from another filing, IgG4, V domains shown) VH: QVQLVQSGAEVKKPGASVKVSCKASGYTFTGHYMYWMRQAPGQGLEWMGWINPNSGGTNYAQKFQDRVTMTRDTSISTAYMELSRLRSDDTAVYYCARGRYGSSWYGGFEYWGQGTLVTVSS VL: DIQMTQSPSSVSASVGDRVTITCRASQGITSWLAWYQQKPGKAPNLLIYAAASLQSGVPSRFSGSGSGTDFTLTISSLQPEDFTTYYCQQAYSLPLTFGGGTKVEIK | yes (1)
H4H9670P (antibody, from another filing, IgG4, V domains shown) VH: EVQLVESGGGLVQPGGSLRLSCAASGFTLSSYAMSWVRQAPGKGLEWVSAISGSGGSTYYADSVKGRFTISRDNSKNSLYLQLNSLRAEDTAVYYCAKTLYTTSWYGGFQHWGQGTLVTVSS VL: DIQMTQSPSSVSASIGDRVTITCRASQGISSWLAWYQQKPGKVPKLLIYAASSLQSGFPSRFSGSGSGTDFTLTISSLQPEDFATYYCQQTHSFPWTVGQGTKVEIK | yes (1)
H4H9671P (antibody, from another filing, IgG4, V domains shown) VH: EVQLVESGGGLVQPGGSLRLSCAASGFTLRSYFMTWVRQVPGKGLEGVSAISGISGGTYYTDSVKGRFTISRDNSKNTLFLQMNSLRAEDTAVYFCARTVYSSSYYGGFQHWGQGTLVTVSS VL: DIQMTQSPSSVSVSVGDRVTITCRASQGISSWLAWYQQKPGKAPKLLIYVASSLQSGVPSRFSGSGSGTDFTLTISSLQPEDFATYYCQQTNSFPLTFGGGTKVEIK | yes (1)
